- Study System: Cytochrome P450 2C9 (Homo sapiens)
- Experiment: Cytochrome panel assay with activity outcomes; also: % is scaled to controls: 0 for no effect and ±100 for the full control effect
- Details: recombinant CYP, pro-luciferin dealkylation, luminescence, p450-cyp2c9; series mostly up to 57.1 µM
The campaign covered roughly 16,000 compounds. About 4,000 (25%) were called active. Another 26% or so got no clear call; they are omitted. The list is a sample of the results.
Metric: activity, negative = inhibition

Here is how some compounds turned out for activity, negative = inhibition.
COc1ccc(COC(=O)N/N=C2/C[C@@H](O)[C@@H](O)[C@@H]3[C@@H]4C(=O)N([C@@H](C)c5ccccc5)C(=O)[C@H]4CC[C@H]23)cc1 :: 0.0971% [at 11.4 µM] (inactive)
CCc1cc2c(nc1CC)CCN(CC/C(C)=N/OC[C@@H](O)COCc1ccco1)C2 :: 17.1% [at 11.4 µM] (inactive)
Cc1ccccc1-c1cncnc1Nc1ccc(F)cc1 :: -14.2% [at 2.29 µM] (inactive)
O=C1COC(c2ccccc2O)=NN1CCCN1CCCC1 :: 2.77% [at 11.4 µM] (inactive)
Cc1cnc(CNc2ccnc(-c3ccccc3Cl)n2)cn1 :: 7.84% [at 2.29 µM] (inactive)
Cc1cnc(CNc2ncnc3ccc(-c4ccccc4Cl)cc23)cn1 :: -25% [at 2.29 µM] (inactive)

Supply recorded activity, negative = inhibition for `S=C(Nc1ccc2c(c1)Cc1ccccc1-2)Nc1ccc2c(c1)Cc1ccccc1-2` here.
1.69% [at 11.4 µM] (inactive)

For the compound `Cc1ccc(S(=O)(=O)N[C@@H]2COC(=O)C/C=C\[C@H](C)COC(=O)N[C@@H](C)C(=O)C/C=C\[C@H]2C)cc1` , give its reported activity, negative = inhibition.
7.18% [at 11.4 µM] (inactive)

Please report the measured activity, negative = inhibition for `Cc1ccc(/C(C#N)=C/c2cccc([N+](=O)[O-])c2)cc1`
-10.5% [at 11.4 µM] (inactive)

Fill in activity, negative = inhibition for record `NCCSCCC(=O)O`
-9.49% [at 11.4 µM] (inactive)
